Below: a set of entries, each annotated with reported inhibition.
# measurement_target: Delta-type opioid receptor (Rattus norvegicus)
# protocol_description: Inhibition against [3H]D-Ala-deltorphin opioid receptor delta 2 in rat brain membranes at 1 umol/L.
# Format: cell membranes
value_type: inhibition (%)

• COC(=O)C12CN(C)CC(C(=O)OC)(C1=O)C(c1cccc([N+](=O)[O-])c1)N(C)C2c1cccc([N+](=O)[O-])c1 (stereo unspecified) = -7.9
• COC(=O)C12CN(C)CC(C(=O)OC)(C1=O)C(c1ccc([N+](=O)[O-])cc1)N(C)C2c1ccc([N+](=O)[O-])cc1 (trans isomer) = -4
• CN1CC2(C(=O)O)C(=O)C(C(=O)O)(C1)C(c1ccccc1)N(C)C2c1ccccc1 (stereo unspecified) = -1.6
• COC(=O)C12CN(C)CC(C(=O)OC)(C1=O)C(c1ccc(C#N)cc1)N(C)C2c1ccc(C#N)cc1 (stereo unspecified) = 3.2
• COC(=O)C12CN(C)CC(C(=O)OC)(C1=O)C(c1ccc(OC)cc1)N(C)C2c1ccc(OC)cc1 (stereo unspecified) = 3
• CCOC(=O)C12CN(C)CC(C(=O)OCC)(C1=O)C(c1ccc(Cl)cc1)N(C)C2c1ccc(Cl)cc1 (stereo unspecified) = 1.8
• CCOC(=O)C12CN(C)CC(C(=O)OCC)(C1=O)C(c1cccc([N+](=O)[O-])c1)N(C)C2c1cccc([N+](=O)[O-])c1 (stereo unspecified) = 6.1
• COC(=O)C12CN(C)CC(C(=O)OC)(C1=O)C(c1ccccc1Cl)N(C)C2c1ccccc1Cl (stereo unspecified) = 1.9
• COC(=O)C12CN(C)CC(C(=O)OC)(C1=O)C(c1cccc(F)c1)N(C)C2c1cccc(F)c1 (stereo unspecified) = 3.2
• COC(=O)C12CN(C)CC(C(=O)OC)(C1=O)C(c1cccc3ccccc13)N(C)C2c1cccc2ccccc12 (stereo unspecified) = 1.8
• COC(=O)C12CN(C)CC(C(=O)OC)(C1=O)C(c1cccc(OC)c1)N(C)C2c1cccc(OC)c1 (stereo unspecified) = -1.6
• CCOC(=O)C12CN(C)CC(C(=O)OCC)(C1=O)C(c1cccc(O)c1)N(C)C2c1cccc(O)c1 (stereo unspecified) = 6.9
• COC(=O)C12CN(C)CC(C(=O)OC)(C1=O)C(c1ccnc3ccccc13)N(C)C2c1ccnc2ccccc12 (stereo unspecified) = 1.2
• COC(=O)C12CN(C)CC(C(=O)OC)(C1=O)C(c1ccc3ccccc3n1)N(C)C2c1ccc2ccccc2n1 (stereo unspecified) = 11.8
• COC(=O)C12CN(C)CC(C(=O)OC)(C1=O)C(c1ccc(O)cc1)N(C)C2c1ccc(O)cc1 (stereo unspecified) = 7.3
• COC(=O)C12CN(C)CC(C(=O)OC)(C1=O)C(c1ccc(F)cc1)N(C)C2c1ccc(F)cc1 (stereo unspecified) = 0.4

---

# measurement_target: UniProt P41145
# Sequence (P41145 whole entry): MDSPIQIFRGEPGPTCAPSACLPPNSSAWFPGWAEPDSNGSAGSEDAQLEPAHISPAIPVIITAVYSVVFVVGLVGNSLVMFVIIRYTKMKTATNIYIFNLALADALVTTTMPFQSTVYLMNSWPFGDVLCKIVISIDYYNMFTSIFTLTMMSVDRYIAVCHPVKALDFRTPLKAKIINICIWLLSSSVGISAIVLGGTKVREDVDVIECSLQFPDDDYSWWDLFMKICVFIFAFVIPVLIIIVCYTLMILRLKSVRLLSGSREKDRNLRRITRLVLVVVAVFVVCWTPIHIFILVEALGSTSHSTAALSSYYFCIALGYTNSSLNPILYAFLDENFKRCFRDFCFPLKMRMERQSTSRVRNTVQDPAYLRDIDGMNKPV
# protocol_description: Inhibition against [3H]diprenorphine human Opioid receptor kappa 1 at 10 umol/L
pKi: −log10 of the molar value.
value_type: pKi

• CN1CC2(C(=O)O)C(=O)C(C(=O)O)(C1)C(c1ccccc1)N(C)C2c1ccccc1 (stereo not drawn) = 6.68
• COC(=O)C12CN(C)CC(C(=O)OC)(C1=O)C(c1ccc(OC)cc1)N(C)C2c1ccc(OC)cc1 (stereo not drawn) = 7.74
• COC(=O)C12CN(C)CC(C(=O)OC)(C1=O)C(c1ccc(F)cc1)N(C)C2c1ccc(F)cc1 (stereo not drawn) = 6.85

---

# measurement_target: Delta-type opioid receptor (Rattus norvegicus) (UniProt P33533)
# Sequence (P33533 whole entry): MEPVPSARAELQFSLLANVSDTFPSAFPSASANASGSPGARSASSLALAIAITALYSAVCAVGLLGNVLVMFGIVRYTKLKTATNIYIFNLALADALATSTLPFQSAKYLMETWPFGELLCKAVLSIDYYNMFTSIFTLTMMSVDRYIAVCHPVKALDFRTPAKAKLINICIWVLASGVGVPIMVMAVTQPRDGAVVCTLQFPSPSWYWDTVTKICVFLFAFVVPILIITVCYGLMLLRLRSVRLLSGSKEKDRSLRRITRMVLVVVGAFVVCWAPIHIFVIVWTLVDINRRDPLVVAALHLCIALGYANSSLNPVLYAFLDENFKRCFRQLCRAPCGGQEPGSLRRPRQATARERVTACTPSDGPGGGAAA
# protocol_description: Inhibition against [3H]D-Ala-deltorphin opioid receptor delta 2 in rat brain membranes at 1 umol/L.
# Type: cell membranes
Below: a set of entries, each annotated with reported inhibition.
value_type: inhibition (%)

• COC(=O)C12CN(C)CC(C(=O)OC)(C1=O)C(c1ccc(Cl)cc1)N(C)C2c1ccc(Cl)cc1 (stereo unspecified) = -2.1
• COC(=O)C12CN(C)CC(C(=O)OC)(C1=O)C(c1ccncc1)N(C)C2c1ccncc1 (stereo unspecified) = -9
• COC(=O)C12C[N+](C)(C)CC(C(=O)OC)(C1=O)C(c1ccccn1)N(C)C2c1ccccn1 (stereo unspecified) = 3.3
• COC(=O)C12CN(C)CC(C(=O)OC)(C1=O)C(c1ccc(Cl)c(Cl)c1)N(C)C2c1ccc(Cl)c(Cl)c1 (stereo unspecified) = -5.3
• COC(=O)C12CN(C)CC(C(=O)OC)(C1=O)C(c1ccccc1F)N(C)C2c1ccccc1F (stereo unspecified) = 1.5
• COC(=O)C12CN(C)CC(C(=O)OC)(C1=O)C(c1cccnc1)N(C)C2c1cccnc1 (stereo unspecified) = 1.1

---

Below: a set of entries, each annotated with reported inhibition.
# measurement_target: Mu-type opioid receptor (Rattus norvegicus) (UniProt P33535)
# Sequence (P33535 whole entry): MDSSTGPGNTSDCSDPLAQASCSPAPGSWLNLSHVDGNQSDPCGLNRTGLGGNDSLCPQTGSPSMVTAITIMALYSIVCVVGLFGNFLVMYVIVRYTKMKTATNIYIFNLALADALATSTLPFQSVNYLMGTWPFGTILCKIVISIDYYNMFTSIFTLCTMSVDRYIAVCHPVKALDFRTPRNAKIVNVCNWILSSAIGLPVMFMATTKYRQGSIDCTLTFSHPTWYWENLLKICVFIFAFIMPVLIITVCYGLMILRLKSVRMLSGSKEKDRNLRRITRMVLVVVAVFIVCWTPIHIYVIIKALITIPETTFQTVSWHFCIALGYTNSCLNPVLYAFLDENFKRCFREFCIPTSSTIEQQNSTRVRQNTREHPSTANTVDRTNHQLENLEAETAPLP
# protocol_description: Inhibition against [3H]naloxone opioid receptor mu 1 in rat brain membranes at 1 umol/L.
# Type: cell membranes
value_type: inhibition (%)

* COC(=O)C12CN(C)CC(C(=O)OC)(C1=O)C(c1ccc(C#N)cc1)N(C)C2c1ccc(C#N)cc1 (centres undefined) | 5.6
* COC(=O)C12CN(C)CC(C(=O)OC)(C1=O)C(c1ccc(OC)cc1)N(C)C2c1ccc(OC)cc1 (centres undefined) | 26.5
* CCOC(=O)C12CN(C)CC(C(=O)OCC)(C1=O)C(c1ccc(Cl)cc1)N(C)C2c1ccc(Cl)cc1 (centres undefined) | -5
* CCOC(=O)C12CN(C)CC(C(=O)OCC)(C1=O)C(c1cccc([N+](=O)[O-])c1)N(C)C2c1cccc([N+](=O)[O-])c1 (centres undefined) | 2.3

---

Below: a set of entries, each annotated with reported inhibition.
# measurement_target: Delta-type opioid receptor (Rattus norvegicus)
# protocol_description: Inhibition against [3H]DPDPE Opioid receptor delta 1 in rat brain membranes at 1 umol/L
# Assay type: cell membranes
value_type: inhibition (%)

* COC(=O)C12CN(C)CC(C(=O)OC)(C1=O)C(c1cccc(O)c1)N(C)C2c1cccc(O)c1 (centres undefined) | 27
* COC(=O)C12CN(C)CC(C(=O)OC)(C1=O)C(c1cccc(Cl)c1)N(C)C2c1cccc(Cl)c1 (centres undefined) | -0.8
* COC(=O)C12CN(C)CC(C(=O)OC)(C1=O)C(c1ccccn1)N(C)C2c1ccccn1 (centres undefined) | 5
* COC(=O)C12CN(C)CC(C(=O)OC)(C1=O)C(c1cccc(C)c1)N(C)C2c1cccc(C)c1 (centres undefined) | 3.4
